- System: S. mutans
- EXPERIMENTAL CONDITIONS: Streptococcus mutans
No end group written: not given here.
TEST READOUT: % viability remaining (%)
Give bare numbers, in %.

Could you tell me % viability remaining for each of these sequences? They are listed below.
1. TFFRLFNRSQTQALGK [F10 to Q10_C16G2]
2. TQFRLFNRSFTQALGK [F2 to Q2_C16G2]
3. TFFRLFNRSLTQALGK [F10-L10_C16G2]

// result
73
47
30

Could you tell me % viability remaining for each of these sequences? They are listed below.
1. TQFRLQNRSQTQALGK [F7/11/15 sub Q_C16G2]
2. TFFRLLNRSFTQALGK [F6-L6_C16G2]
3. TWFRLFNRSFTQALGK [F2-W2_C16G2]

// result
1. 93
2. 43
3. 45

Could you tell me % viability remaining for each of these sequences? They are listed below.
1. TFFRLFNRSFTQALAK [G15-A15_C16G2]
2. TLFRLLNRSLTQALGK [F2F6F10-L2L6L10_C16G2]
3. TFFRLFNRSFTQALFK [G15-F15_C16G2]
4. TFFRLFNRSFTQALDK [G15-D15_C16G2]
5. TLFRLFNRSFTQALGK [F2-L2_C16G2]

// result
1. 47
2. 26
3. 29
4. 47
5. 63

Could you tell me % viability remaining for each of these sequences? They are listed below.
1. TAFRLANRSATQALGK [F2/6/10-A2/6/10_C16G2]
2. TFFRLQNRSFTQALGK [F6 to Q6_C16G2]

// result
[78, 79]
